target: UniProt P07306
Sequence (P07306 148-291 limits assumed): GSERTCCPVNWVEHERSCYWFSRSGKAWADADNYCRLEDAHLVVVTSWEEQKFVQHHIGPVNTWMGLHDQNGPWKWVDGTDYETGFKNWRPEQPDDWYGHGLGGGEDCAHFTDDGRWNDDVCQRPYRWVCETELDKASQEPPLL
Measurement kind: pKd
Answers are plain numbers, as −log10 of the molar value.

Task item: // query pKd value for entry CN(C(=O)OC(C)(C)C)[C@H]1[C@H]2OC[C@](CO)(O2)[C@H](O)[C@@H]1O [Compound 31]
Reply: 4.91

Taken from patent US10851367B2.
